The following molecules are shown together with reported half-life at 400 μM values.
# Tested on: ALP
# procedure details: Dephosphorylation rate measurement (LC-MS)
# measurement setup: alkaline phosphatase (ALP) in PBS
Non-standard residues stand in square brackets, D forms with d. Residues, ends and D or L forms follow the SMILES beside them. *: point of attachment. pY = N[C@@H](Cc1ccc(OP(=O)(O)O)cc1)C(=O)O; NBD = O=[N+]([O-])c1ccc(*)c2nonc12; βAla = NCCC(=O)O
property measured: half-life at 400 μM (h)

molecule: CC(C)C[C@@H](NC(=O)CCNc1ccc([N+](=O)[O-])c2nonc12)C(=O)N[C@H](CC(C)C)C(=O)N[C@H](CC(C)C)C(=O)N[C@H](CC(C)C)C(=O)N[C@@H](Cc1ccc(OP(=O)(O)O)cc1)C(=O)O [compound 9, NBD-βA-llllpY] ({NBD-βAla}-[dL][dL][dL][dL][pY]-OH)
study target: ALP
quantitative readout: 0.45

molecule: CC(C)C[C@H](NC(=O)[C@H](CC(C)C)NC(=O)[C@H](Cc1ccc(OP(=O)(O)O)cc1)NC(=O)[C@H](CC(C)C)NC(=O)[C@H](CC(C)C)NC(=O)CCNc1ccc([N+](=O)[O-])c2nonc12)C(=O)O [compound 7, NBD-βA-LLpYLL] ({NBD-βAla}-LL[pY]LL-OH)
study target: ALP
quantitative readout: 2.09

----------
# procedure details: Cell viability of iPSCs (trypan blue)
# Assay type: cell-based, human
# measurement setup: human, human induced pluripotent stem cells (iPSC line A21); 200 μM, 2 hours
Non-standard residues stand in square brackets, D forms with d. Residues, ends and D or L forms follow the SMILES beside them. *: point of attachment. pY = N[C@@H](Cc1ccc(OP(=O)(O)O)cc1)C(=O)O; NBD = O=[N+]([O-])c1ccc(*)c2nonc12; βAla = NCCC(=O)O
property measured: viability at 2 h, 200 µM (%)

compound: CC(C)C[C@H](NC(=O)CCNc1ccc([N+](=O)[O-])c2nonc12)C(=O)N[C@@H](CC(C)C)C(=O)N[C@@H](CC(C)C)C(=O)N[C@@H](CC(C)C)C(=O)N[C@@H](Cc1ccc(OP(=O)(O)O)cc1)C(=O)O [compound 5, NBD-βA-LLLLpY] ({NBD-βAla}-LLLL[pY]-OH)
unit of measurement: %
quantitative readout: 31.1

----------
# Tested on: ALP
# procedure details: Dephosphorylation rate measurement (LC-MS)
# measurement setup: alkaline phosphatase (ALP) in PBS, half-life of dephosphorylation, 400 μM, 0.1 U/mL ALP
Non-standard residues stand in square brackets, D forms with d. Residues, ends and D or L forms follow the SMILES beside them. *: point of attachment. pY = N[C@@H](Cc1ccc(OP(=O)(O)O)cc1)C(=O)O; NBD = O=[N+]([O-])c1ccc(*)c2nonc12; βAla = NCCC(=O)O
property measured: half-life at 400 μM (h)

molecule: CC(C)C[C@H](NC(=O)CCNc1ccc([N+](=O)[O-])c2nonc12)C(=O)N[C@@H](CC(C)C)C(=O)N[C@@H](CC(C)C)C(=O)N[C@@H](CC(C)C)C(=O)N[C@@H](Cc1ccc(OP(=O)(O)O)cc1)C(=O)O [compound 5, NBD-βA-LLLLpY] ({NBD-βAla}-LLLL[pY]-OH)
quantitative readout: 2.04
